CONDITION: in ethyl acetate, 308.25 K
MEASUREMENT_TYPE: solubility (mole fraction)

Answer with the recorded solubility (mole fraction) for the molecule listed here: c1ccc(OP2(Oc3ccccc3)=NP(Oc3ccccc3)(Oc3ccccc3)=NP(Oc3ccccc3)(Oc3ccccc3)=N2)cc1
0.0829

###

CONDITION: in 2-ethoxyethanol, 353.25 K
MEASUREMENT_TYPE: solubility (mole fraction)

State its solubility (mole fraction) for this molecule: O=[PH](O)c1ccccc1
0.397

###

CONDITION: in dichloromethane, 303.15 K
MEASUREMENT_TYPE: solubility (mole fraction)

Give reported solubility (mole fraction) value for c1ccc(OP2(Oc3ccccc3)=NP(Oc3ccccc3)(Oc3ccccc3)=NP(Oc3ccccc3)(Oc3ccccc3)=N2)cc1
0.158

Every entry's value here was drawn from BigSolDB 2.1.
